assay: growth suppression of beta-catenin knockout HCT116, pilot screen, human colon tumor cells (AID 823); conditions: CellTiter-Glo, 60 h, at 10 µM, active compounds read low;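 further: 0% = wells killed by 20 µM Hyamine and 100% = untreated DMSO cell wells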
Results filed as inconclusive are left out.
Examples of compounds with documented viability follow.
readout-kind: viability (%)

compound: COc1cccc(N(CC(=O)Nc2cccc(F)c2)S(C)(=O)=O)c1
readout-kind: viability
value-reported: 91.1
//
compound: CCCCN(CC)CCNC(=O)Cn1cnc2sc(C)c(S(=O)(=O)N3CCOCC3)c2c1=O
readout-kind: viability
value-reported: 99.5
//
compound: COc1ccc(-c2nc(-c3ccc(Br)o3)no2)cc1OC
readout-kind: viability
value-reported: 86.3
//
compound: COc1ccc(C(=O)CCC(=O)N2CCN(c3ccc(N4CCOCC4)nn3)CC2)cc1
readout-kind: viability
value-reported: 102
//
compound: COc1cccc2c1N1C(=O)c3c(C(=O)O)cccc3C1CC2(C)C (stereo not drawn)
readout-kind: viability
value-reported: 108
//
compound: O=C(Nc1ccccc1)c1ccccc1O
readout-kind: viability
value-reported: 92.2
//
compound: CC1(C)CC(n2c(NCCO)nc3c(c2=O)C2(CCCC2)Cc2ccccc2-3)CCO1 (stereo not drawn)
readout-kind: viability
value-reported: 96.2
//
compound: COc1ccc(CN(C)C2CCCCC2)cc1
readout-kind: viability
value-reported: 95.9
//
compound: Cc1ccc(S(=O)(=O)N(CC(=O)N2CCCC2)C2CCCCC2)cc1
readout-kind: viability
value-reported: 99
//
compound: O=C(Cn1nnc(-c2ccccc2F)n1)NCCc1ccccc1
readout-kind: viability
value-reported: 97.4
//
compound: O=C(c1ccc(N2CCCCS2(=O)=O)cc1)N1CCN(c2ccc(N3CCOCC3)nn2)CC1
readout-kind: viability
value-reported: 105
//
compound: COc1ccc(-c2nnc(SCC(=O)NC(C)C)n2CC2CCCO2)cc1OC (stereo not drawn)
readout-kind: viability
value-reported: 103
//
compound: COc1ccccc1CNS(=O)(=O)c1ccc2c(c1)oc(=O)n2C
readout-kind: viability
value-reported: 101
//
compound: Cn1ccnc1SCC(=O)c1cc2ccccc2o1
readout-kind: viability
value-reported: 95.7
//
compound: CC(C)n1c(C(O)c2ccc3c(c2)OCO3)nc2ccccc21 (stereo not drawn)
readout-kind: viability
value-reported: 94.8
//
compound: Cc1onc(-c2ccccc2Cl)c1C(=O)N(C)C1CCCCC1
readout-kind: viability
value-reported: 46.5
//
compound: CC(=O)Nc1nonc1-c1nc2ccccc2n1Cc1nnc(C)o1
readout-kind: viability
value-reported: 99.7
//
compound: CCOc1ccc(/C=C\C(C)=N\O)cc1
readout-kind: viability
value-reported: 90.3
//
compound: O=C(c1ccc2nc(N3CCOCC3)sc2c1)N1CCN(C(=O)c2ccco2)CC1
readout-kind: viability
value-reported: 105
//
compound: CN1CCN(C(=O)c2cc3c(s2)-c2ccccc2S(=O)(=O)C3)CC1
readout-kind: viability
value-reported: 103
//
compound: CCSc1nnc(NC(=O)c2ccccc2)s1
readout-kind: viability
value-reported: 95.2
//
compound: Cc1noc(C)c1S(=O)(=O)NCc1ccc2c(c1)OCO2
readout-kind: viability
value-reported: 97.5
//
compound: CC1Oc2ccccc2C=C1C1/C(=C(/O)c2ccccc2)C(=O)C(=O)N1CCCN(C)C (stereo not drawn)
readout-kind: viability
value-reported: 95.6

Hey, just so you know, these numbers are from PubChem BioAssay.
